// values below are reported Absolute DNA transfection efficiency in cardiomyocytes
# System: cardiomyocytes
# Assay protocol: Screening as DNA vectors in cardiomyocytes
# Assay type: cell-based
# Design: concentration or dose not given beside the values
# Test conditions: method as Example 4
Endpoint name: Absolute DNA transfection efficiency in cardiomyocytes (%)

• CCCCCCCCCCCSc1nc(NCCCCCCCCC)nc(NCCCN2CCN(C)CC2)n1 = 0.3
• CCCCCCCCCCCCNc1nc(NCCCN2CCOCC2)nc(SCCCCCCCCC)n1 = 1.5
• CCCCCCCCCCCCNc1nc(NCCN2CCCC2)nc(SCCCCCCCCC)n1 = 1.1
• CCCCCCCCCCCSc1nc(NCCN2CCCC2)nc(SCCCCCCCC)n1 = 1.9
• CCCCCCCCCCCCCCSc1nc(NCCCN2CCN(C)CC2)nc(SCCCCCCCCC)n1 = 11.1
• CCCCCCCCCCCCCCCSc1nc(NCCCN2CCN(C)CC2)nc(SCCCCCCCCC)n1 = 1.3
• CCCCCCCCCCCCCCCSc1nc(NCCCN(C)C)nc(SCCCCCCCCC)n1 = 6.9
• CCCCCCCCCCCNc1nc(NCCCN2CCN(C)CC2)nc(SCCCCCCCCC)n1 = 1.1

====

// values below are reported Absolute DNA transfection efficiency in HEK293 cells
# Test system: HEK293 cells
# Assay protocol: Preliminary screening as DNA vectors, GFP transfection of HEK293 cells
# Assay type: cell-based
# Test conditions: amino lipid/DOPE liposome with 75 ng plasmid DNA (psin-EGFP-IRES-Puro); number of GFP-expressing cells divided by total nuclei (Hoechst)
Endpoint name: Absolute DNA transfection efficiency in HEK293 cells (%)

- CCCCCCCCCCCCCCCCNc1nc(NCC2CCN(C)CC2)nc(SCCCCCCCCC)n1 [S9N16 D10]: 21.8
- CCCCCCCCCCCCCCCCNc1nc(NCCN2CCCCC2)nc(SCCCCCCCCCCCCCCC)n1 [S15N16 D4]: 0.4
- CCCCCCCCCNc1nc(NCCN2CCN(C)CC2)nc(SCCCCCCCCC)n1 [S9N9 D5]: 47.4
- CCCCCCCCCSc1nc(NCCCN(C)C)nc(SCCCCCCCC)n1 [S8S9 D6]: 6.3
- CCCCCCCSc1nc(NCCN2CCOCC2)nc(SCCCCCCC)n1 [S7S7 D2]: 2.2
- CCCCCCCCCNc1nc(NCCN(CC)CC)nc(SCCCCCCC)n1 [S7N9 D7]: 33.2
- CCCCCCCCCCCNc1nc(NCC2CCN(C)CC2)nc(SCCCCCCCCC)n1 [S9N11 D10]: 42.5
- CCCCCCCCCCCCCCSc1nc(NCCCCCCCCC)nc(NCCN(CC)CC)n1 [S14N9 D7]: 10.6
- CCCCCCCCCCCCCCCCCCNc1nc(NCCN2CCCCC2)nc(SCCCCCCCCCCC)n1 [S11N18 D4]: 4.4
- CCCCCCCCCCCSc1nc(NCCCCCCCCC)nc(NCCN2CCCCC2)n1 [S11N9 D4]: 1.1
- CCCCCCCCNc1nc(NCCN(C)C)nc(SCCCCCCCC)n1 [S8N8 D1]: 9.3
- CCCCCCCNc1nc(NCCN(C)C)nc(SCCCCCC)n1 [S6N7 D1]: 0.1
- CCCCCCCCCCCCN(CCCCCCCCCCCC)c1nc(NCCN(CC)CC)nc(SCCCCCCCCCC)n1 [S10^2N12 D7]: 0.7
- CCCCCCCCCCCCCNc1nc(NCCN2CCCC2)nc(SCCCCCCC)n1 [S7N13 D3]: 17.9
- CCCCCCCCCCCCCCCSc1nc(NCC2CCN(C)CC2)nc(SCCCCCCC)n1 [S7S15 D10]: 33.3
- CCCCCCCCCCCCCNc1nc(NCCN2CCCC2)nc(SCCCCCCCC)n1 [S8N13 D3]: 30.5
- CCCCCCCCCCCCCCSc1nc(NCCCCCCCCCCCC)nc(NCCN(CC)CC)n1 [S14N12 D7]: 1.1
- CCCCCCCCCCSc1nc(NCCCCCC)nc(NCCN(C)C)n1 [S10N6 D1]: 6.9
- CCCCCCCCCSc1nc(NCCN2CCOCC2)nc(SCCCCCCCC)n1 [S8S9 D2]: 37.0
